Test system: DMPK
assay_info: DMPK knockdown by transfected antisense oligonucleotides in DM1 C15 myotubes at 0.5 nM and 50 nM
Type: cell-based
applied_conditions: 50 nM oligonucleotide, 72 hours, qPCR, relative to vehicle control = 1.00
Experimental: Two hundred and thirty-six oligonucleotides for targeting DMPK were generated using in silico analysis. Each individual oligonucleotide was evaluated for their ability to target DMPK in cellulo at two doses—0.5 nM (low dose) and 50 nM (high dose). Briefly, DM1 C15 immortalized myoblasts were cultured in T-75 flasks until near confluency (˜80% confluent). Myoblasts were then disrupted with trypsin and seeded into 96-well microplates at a density of 50,000 cells/well. […]

substance | Normalized DMPK Remaining
357 (CCUCAGCCUCUGCCGCAGGG; chemistry not given here) [compound 357] | 0.45
353 (GGCGAAUACACCCAGCGCCC; chemistry not given here) [compound 353] | 0.31
288 (CAGGGACAGCCGCUGGAACU; chemistry not given here) [compound 288] | 0.41
355 (CCCGUCUGCUUCAUCUUCAC; chemistry not given here) [compound 355] | 0.56
351 (UGAUGUCCCUGUGCACGUAG; chemistry not given here) [compound 351] | 0.41
257 (CAUGGCAUACACCUGGCCCG; chemistry not given here) [compound 257] | 0.26
318 (AGGAGCAGGGAAAGCGCCUC; chemistry not given here) [compound 318] | 0.38
325 (GGUAGUUCUCAUCCUGGAAG; chemistry not given here) [compound 325] | 0.44
284 (CACGUAAUACUCCAUGACCA; chemistry not given here) [compound 284] | 0.54
341 (AGGGCGUCUGCCCAUAGAAC; chemistry not given here) [compound 341] | 0.41
352 (AAAUACCGAGGAAUGUCGGG; chemistry not given here) [compound 352] | 0.49
270 (GGGCCUGGGACCUCACUGUC; chemistry not given here) [compound 270] | 0.23
292 (GCCUCUGCCUCGCGUAGUUG; chemistry not given here) [compound 292] | 0.19
326 (CAGCGCCCACCAGUCACACU; chemistry not given here) [compound 326] | 0.35
330 (CCAGCGCCCACCAGUCACAC; chemistry not given here) [compound 330] | 0.29
264 (AGGAUGUUGUCGGGUUUGAU; chemistry not given here) [compound 264] | 0.61
375 (CGGCUCAGGCUCUGCCGGGU; chemistry not given here) [compound 375] | 0.31
364 (AGCGCCCACCAGUCACACUC; chemistry not given here) [compound 364] | 0.36
366 (UUUGGGCAGAUGGAGGGCCU; chemistry not given here) [compound 366] | 0.30
358 (GUGUCCGGAAGUCGCCUGCU; chemistry not given here) [compound 358] | 0.26
324 (GCCUCAGCCUCUGCCGCAGG; chemistry not given here) [compound 324] | 0.54
247 (GGGCCCGGAUCACAGGACUG; chemistry not given here) [compound 247] | 0.38
295 (CCUUGUAGUGGACGAUCUUG; chemistry not given here) [compound 295] | 0.34
276 (UGUGCACGUAGCCAAGCCGG; chemistry not given here) [compound 276] | 0.25
263 (GGAUGGCCUCCAUCUCCCGG; chemistry not given here) [compound 263] | 0.39
319 (ACACCUGGCCCGUCUGCUUC; chemistry not given here) [compound 319] | 0.45
265 (GUCGGGUUUGAUGUCCCUGU; chemistry not given here) [compound 265] | 0.36
335 (UCCCCAAACUUGCUCAGCAG; chemistry not given here) [compound 335] | 0.55
316 (AGCAGGAUGUUGUCGGGUUU; chemistry not given here) [compound 316] | 0.26
327 (CCCAAACUUGCUCAGCAGUG; chemistry not given here) [compound 327] | 0.38
328 (CUUGCCAUAGGUCUCCGCCG; chemistry not given here) [compound 328] | 0.29
349 (UUUGCCCAUCCACGUCAGGG; chemistry not given here) [compound 349] | 0.41
269 (CUGUCCCGGAGACCAUCCCA; chemistry not given here) [compound 269] | 0.49
